B1: IFRG15 (parent)
chain: INRADYCPECYPDNPANRSLVLPW

Variants of: B1
ASSAY_SUMMARY: protein stability index of a GFP-peptide fusion (GPS, HEK-293T) (PSI 1-6); higher = more stable;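 further: lentivirally expressed fusions sorted by FACS into six bins by GFP to DsRed ratio, PSI derived from sequencing read proportions per bin multiplied by bin number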
TEST_CONTEXT: c terminus: a fixed tail appended

{"RESIDUE_CODES": "INRAMYCPECYPDNPANRSLVLPW", "protein stability index": 1.95}
{"RESIDUE_CODES": "INRHDYCPECYPDNPANRSLVLPW", "protein stability index": 1.65}
{"RESIDUE_CODES": "INVADYCPECYPDNPANRSLVLPW", "protein stability index": 1.74}
{"RESIDUE_CODES": "INRADYCPECYPDNPANRHLVLPW", "protein stability index": 2.07}
{"RESIDUE_CODES": "TNRADYCPECYPDNPANRSLVLPW", "protein stability index": 1.74}
{"RESIDUE_CODES": "INRADYCPDCYPDNPANRSLVLPW", "protein stability index": 2.39}
{"RESIDUE_CODES": "INRADYCPECYPDNPANRSLRLPW", "protein stability index": 1.83}
{"RESIDUE_CODES": "INRADKCPECYPDNPANRSLVLPW", "protein stability index": 2.66}
{"RESIDUE_CODES": "INRADYCPECGPDNPANRSLVLPW", "protein stability index": 2.84}
{"RESIDUE_CODES": "INRADYCDECYPDNPANRSLVLPW", "protein stability index": 2.64}
{"RESIDUE_CODES": "INRADYCPECYPDNPANRSLVLTW", "protein stability index": 1.59}
{"RESIDUE_CODES": "INRADYCPECYPDNPTNRSLVLPW", "protein stability index": 2.06}
{"RESIDUE_CODES": "INRLDYCPECYPDNPANRSLVLPW", "protein stability index": 2.09}
{"RESIDUE_CODES": "INRADYCPECYPDNTANRSLVLPW", "protein stability index": 1.9}
{"RESIDUE_CODES": "INRADYCPQCYPDNPANRSLVLPW", "protein stability index": 1.62}
{"RESIDUE_CODES": "INRADYCPECYPDPPANRSLVLPW", "protein stability index": 2.28}
{"RESIDUE_CODES": "INRADYCPECYPDNPANRSTVLPW", "protein stability index": 2.57}
{"RESIDUE_CODES": "INRADYCPECYPDNPANKSLVLPW", "protein stability index": 2.83}
{"RESIDUE_CODES": "INRAYYCPECYPDNPANRSLVLPW", "protein stability index": 1.15}
{"RESIDUE_CODES": "INRADYCPECYPDNPANRSLPLPW", "protein stability index": 2.92}
{"RESIDUE_CODES": "INRADYCPACYPDNPANRSLVLPW", "protein stability index": 2.71}
{"RESIDUE_CODES": "INRADYCPECYPDQPANRSLVLPW", "protein stability index": 1.86}
{"RESIDUE_CODES": "INRADYCPECYIDNPANRSLVLPW", "protein stability index": 1.56}
{"RESIDUE_CODES": "INRADYCPECYPDNPANRYLVLPW", "protein stability index": 1.88}
{"RESIDUE_CODES": "INRADYCPECYPDNPANRRLVLPW", "protein stability index": 1.59}
{"RESIDUE_CODES": "INRADYCPYCYPDNPANRSLVLPW", "protein stability index": 1.31}
{"RESIDUE_CODES": "INRADYCPECYPDNPANRSLVLKW", "protein stability index": 1.71}
{"RESIDUE_CODES": "INRADYCFECYPDNPANRSLVLPW", "protein stability index": 2.1}
{"RESIDUE_CODES": "IDRADYCPECYPDNPANRSLVLPW", "protein stability index": 2.64}
{"RESIDUE_CODES": "INRADYCPECYPDNPANRSLVQPW", "protein stability index": 2.35}
{"RESIDUE_CODES": "INRADYCPECYPDNPYNRSLVLPW", "protein stability index": 2.67}
{"RESIDUE_CODES": "INRADYCPECYYDNPANRSLVLPW", "protein stability index": 2.26}
{"RESIDUE_CODES": "INRADYCPECYPDNPGNRSLVLPW", "protein stability index": 2.04}
{"RESIDUE_CODES": "INRADYCPECYPDNPANRSLVLPT", "protein stability index": 2.3}
